# total protein half-life in vivo per entry
# TEST METHOD NOTES: total protein half-life in vivo (active degradation + dilution); higher = more stable protein
# APPLIED CONDITIONS: wild type E. coli NCM3722; growth: N-lim chemostat; doubling time 6 h
Numeric answer only, unit h assumed.

sequence_string=MHYQPKQDLLNDRIILVTGASDGIGREAAMTYARYGATVILLGRNEEKLRQVASHINEETGRQPQWFILDLLTCTSENCQQLAQRIAVNYPRLDGVLHNAGLLGDVCPMSEQNPQVWQDVMQVNVNATFMLTQALLPLLLKSDAGSLVFTSSSVGRQGRANWGAYAASKFATEGMMQVLADEYQQRLRVNCINPGGTRTAMRASAFPTEDPQKLKTPADIMPLYLWLMGDDSRRKTGMTFDAQPGRKPGISQ endpoint="total protein half-life in vivo" units_of_measure=h value_measured=3.68
sequence_string=MKKIAAISLISIFIMSGCAVHNDETSIGKFGLAYKSNIQRKLDNQYYTEAEASLARGRISGAENIVKNDATHFCVTQGKKMQIVELKTEGVGLHGVARLTFKCGE endpoint="total protein half-life in vivo" units_of_measure=h value_measured=6.8
sequence_string=MKKIAITCALLSSLVASSVWADAASDLKSRLDKVSSFHASFTQKVTDGSGAAVQEGQGDLWVKRPNLFNWHMTQPDESILVSDGKTLWFYNPFVEQATATWLKDATGNTPFMLIARNQSSDWQQYNIKQNGDDFVLTPKASNGNLKQFTINVGRDGTIHQFSAVEQDDQRSSYQLKSQQNGAVDAAKFTFTPPQGVTVDDQRK endpoint="total protein half-life in vivo" units_of_measure=h value_measured=6.25

Turning to the following sequence.
[ask] GET /values?readout=total protein half-life in vivo&item= MRLLPLVAAATAAFLVVACSSPTPPRGVTVVNNFDAKRYLGTWYEIARFDHRFERGLEKVTATYSLRDDGGLNVINKGYNPDRGMWQQSEGKAYFTGAPTRAALKVSFFGPFYGGYNVIALDREYRHALVCGPDRDYLWILSRTPTISDEVKQEMLAVATREGFDVSKFIWVQQPGS [P0A901]
[reply] 5.78

====

# TEST METHOD NOTES: total protein half-life in vivo (active degradation + dilution); higher = more stable protein
# APPLIED CONDITIONS: wild type E. coli NCM3722; growth: N-lim chemostat; doubling time 12 h
The entries below are paired with their reported total protein half-life in vivo.
Dear colleague, please return just the value in h, with no unit written.

Below are worked cases with known answers.
sequence_string=MSNWPYPRIVAHRGGGKLAPENTLASIDVGAKYGHKMIEFDAKLSKDGEIFLLHDDNLERTSNGWGVAGELNWQDLLRVDAGSWYSKMFKGEPLPLLSQVAERCREHGMMANIEIKPTTGTGPLTGKMVALAARELWAGMTPPLLSSFEIDALEAAQQAAPELPRGLLLDEWRDDWRELTARLGCVSIHLNHKLLNKARVMQLKDAGLRILVYTVNKPQRAAELLRWGVDCICTDAIDVIGPNFTAQ units_of_measure=h value_measured=6.08
sequence_string="MRIVTAAVMASTLAVSSLSHAAEVGSGDNWHPGEELTQRSTQSHMFDGISLTEHQRQQMRDLMQQARHEQPPVNVSELETMHRLVTAENFDENAVRAQAEKMANEQIARQVEMAKVRNQMYRLLTPEQQAVLNEKHQQRMEQLRDVTQWQKSSSLKLLSSSNSRSQ [P0AE85]" units_of_measure=h value_measured=3.54
sequence_string="MKKKILAFGLISALFCSTPAMADMNRTTKGALLGAGVGLLTGNGVNGVLKGAAVGAGVGAVTEKGRDGKNARKGAKVGAAVGAVTGVLTGNGLEGAIKGAVIGGTGGAILGKMK [Q7DFV3]" units_of_measure=h value_measured=1.87

API: the following record is the query input.
[ask] // returns reported total protein half-life in vivo for input MPSLSKEAALVHEALVARGLETPLRPPVHEMDNETRKSLIAGHMTEIMQLLNLDLADDSLMETPHRIAKMYVDEIFSGLDYANFPKITLIENKMKVDEMVTVRDITLTSTCEHHFVTIDGKATVAYIPKDSVIGLSKINRIVQFFAQRPQVQERLTQQILIALQTLLGTNNVAVSIDAVHYCVKARGIRDATSATTTTSLGGLFKSSQNTRHEFLRAVRHHN [P0A6T5]
[reply] 2.02

====

Reported total protein half-life in vivo is given for each of the following sequences.
# TEST METHOD NOTES: total protein half-life in vivo (active degradation + dilution); higher = more stable protein
# APPLIED CONDITIONS: wild type E. coli NCM3722; growth: C-lim chemostat; doubling time 12 h
Form field: result (number plus unit)

Worked examples follow.
sequence_string="MLVSCAMRLHSGVFPDYAEKLPQEEKMEKEDSFPQRVWQIVAAIPEGYVTTYGDVAKLAGSPRAARQVGGVLKRLPEGSTLPWHRVVNRHGTISLTGPDLQRQRQALLAEGVMVSGSGQIDLQRYRWNY [P0AFP2]" value_measured="3.96 h"
sequence_string="MFHRLWTLIRKELQSLLREPQTRAILILPVLIQVILFPFAATLEVTNATIAIYDEDNGEHSVELTQRFARASAFTHVLLLKSPQEIRPTIDTQKALLLVRFPADFSRKLDTFQTAPLQLILDGRNSNSAQIAANYLQQIVKNYQQELLEGKPKPNNSELVVRNWYNPNLDYKWFVVPSLIAMITTIGVMIVTSLSVAREREQGTLDQLLVSPLTTWQIFIGKAVPALIVATFQATIVLAIGIWAYQIPFAGSLALFYFTMVIYGLSLVGFGLLISSLCSTQQQAFIGVFVFMMPAILLSGYVSPVENMPVWLQNLTWINPIRHFTDITKQIYLKDASLDIVWNSLWPLLVITATTGSAAYAMFRRKVM [P0AFP9]" value_measured="13 h"

[ask] Return reported total protein half-life in vivo; argument: MKAARQQAIVDLLLNHTSLTTEALSEQLKVSKETIRRDLNELQTQGKILRNHGRAKYIHRQNQDSGDPFHIRLKSHYAHKADIAREALAWIEEGMVIALDASSTCWYLARQLPDINIQVFTNSHPICHELGKRERIQLISSGGTLERKYGCYVNPSLISQLKSLEIDLFIFSCEGIDSSGALWDSNAINADYKSMLLKRAAQSLLLIDKSKFNRSGEARIGHLDEVTHIISDERQVATSLVTA [P0ACK8]
[reply] 1.36 h

====

# TEST METHOD NOTES: total protein half-life in vivo (active degradation + dilution); higher = more stable protein
# APPLIED CONDITIONS: wild type E. coli NCM3722; growth: N-lim chemostat; doubling time 6 h
ENDPOINT: total protein half-life in vivo (h)
Answer format: numeric, h implied, no suffix.

sequence_string=MSGLPLISRRRLLTAMALSPLLWQMNTAHAAAIDPNRIVALEWLPVELLLALGIVPYGVADTINYRLWVSEPPLPDSVIDVGLRTEPNLELLTEMKPSFMVWSAGYGPSPEMLARIAPGRGFNFSDGKQPLAMARKSLTEMADLLNLQSAAETHLAQYEDFIRSMKPRFVKRGARPLLLTTLIDPRHMLVFGPNSLFQEILDEYGIPNAWQGETNFWGSTAVSIDRLAAYKDVDVLCFDHDNSKDMDALMATPLWQAMPFVRAGRFQRVPAVWFYGATLSAMHFVRVLDNAIGGKA value_measured=5.85

# context switch: different sequence, same total protein half-life in vivo
[ask] Bench note: what total protein half-life in vivo did MPVRASIEPLTWENAFFGVNSAIVRITSEAPLLTPDALAPWSRVQAKIAASNTGELDALQQLGFSLVEGEVDLALPVNNASDSGAVVAQETDIPALRQLASAAFAQSRFRAPWYAPDASSRFYAQWIENAVRGTFDHQCLILRAASGDIRGYVSLRELNATDARIGLLAGRGAGAELMQTALNWAYARGKTTLRVATQMGNTAALKRYIQSGANVESTAYWLYR show?
[reply] 5.05

====

# TEST METHOD NOTES: total protein half-life in vivo (active degradation + dilution); higher = more stable protein
# APPLIED CONDITIONS: wild type E. coli NCM3722; growth: C-lim chemostat; doubling time 12 h
Item-by-item account of total protein half-life in vivo
Answer in h, number only, no unit symbol.

Guide cases for total protein half-life in vivo, answers given:
sequence_string="MIPEKRIIRRIQSGGCAIHCQDCSISQLCIPFTLNEHELDQLDNIIERKKPIQKGQTLFKAGDELKSLYAIRSGTIKSYTITEQGDEQITGFHLAGDLVGFDAIGSGHHPSFAQALETSMVCEIPFETLDDLSGKMPNLRQQMMRLMSGEIKGDQDMILLLSKKNAEERLAAFIYNLSRRFAQRGFSPREFRLTMTRGDIGNYLGLTVETISRLLGRFQKSGMLAVKGKYITIENNDALAQLAGHTRNVA [P0A9E5]" endpoint="total protein half-life in vivo" value_measured=2.2
sequence_string=MTKPYVRLDKNDAAVLLVDHQAGLLSLVRDIEPDKFKNNVLALGDLAKYFNLPTILTTSFETGPNGPLVPELKAQFPDTPYIARPGNINAWDNEDFVKAVKATGKKQLIIAGVVTEVCVAFPALSAIEEGFDVFVVTDASGTFNEITRHSAWDRLSQAGAQLMTWFGVACELHRDWRNDIEGLATLFSNHIPDYRNLMTSYDTLTKQK endpoint="total protein half-life in vivo" value_measured=10.3

Turning now to a further sequence:
[ask] Which value of total protein half-life in vivo has been reported for MHKAILNSDLIATKAGDVTVYNYDGETREYISTSNEYLAVGVGIPACSCLDAPGTHKAGYAICRSADFNSWEYVPDHRGETVYSTKTGESKEIKAPGDYPENTTTIAPLSPYDKWDGEKWVTDTEAQHSAAVDAAEAQRQSLIDAAMASISLIQLKLQAGRKLTQAETTRLNAVLDYIDAVTATDTSTAPDVIWPELPEA in the records?
[reply] 3.87
